study-target: UniProt:Q9JJ09
Sequence (Q9JJ09 whole entry): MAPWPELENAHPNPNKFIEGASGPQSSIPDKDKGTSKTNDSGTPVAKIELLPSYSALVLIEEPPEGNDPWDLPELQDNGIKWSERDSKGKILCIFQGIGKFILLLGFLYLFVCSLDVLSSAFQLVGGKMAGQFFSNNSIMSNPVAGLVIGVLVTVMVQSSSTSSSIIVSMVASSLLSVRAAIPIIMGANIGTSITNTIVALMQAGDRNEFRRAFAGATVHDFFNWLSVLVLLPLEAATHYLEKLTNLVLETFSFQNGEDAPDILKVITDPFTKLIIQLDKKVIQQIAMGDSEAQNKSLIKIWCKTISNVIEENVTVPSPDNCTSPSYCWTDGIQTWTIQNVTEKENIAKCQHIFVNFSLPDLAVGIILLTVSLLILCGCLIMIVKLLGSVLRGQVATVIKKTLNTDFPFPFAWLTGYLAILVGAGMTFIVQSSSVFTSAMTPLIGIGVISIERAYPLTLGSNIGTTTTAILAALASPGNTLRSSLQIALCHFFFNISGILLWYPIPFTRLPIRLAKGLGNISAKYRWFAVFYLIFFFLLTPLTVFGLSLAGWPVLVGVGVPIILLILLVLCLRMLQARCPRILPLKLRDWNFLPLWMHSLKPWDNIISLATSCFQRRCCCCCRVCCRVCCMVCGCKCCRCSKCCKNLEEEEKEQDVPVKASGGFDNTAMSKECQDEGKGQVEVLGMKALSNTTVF
experimental-details: Sodium-dependent phosphate uptake of Xenopus oocytes which expressed NaPi-2b (32P)
measurement-parameters: Xenopus oocytes expressing rat NaPi-2b, 32P radioactive phosphorus; read-out: IC50 (phosphate uptake inhibitory activity)
Structures can show the parent of a compound that is named as a salt.
test-readout: IC50 (µM)
Numeric answer only, unit µM assumed.

The recorded IC50 for entry O=C(Nc1ccc(Br)cc1C(=O)N/N=C/c1ccc(Cl)c(C(F)(F)F)c1)c1ccc(CNCCN2CCOCC2)cc1 equals 3.52

Measured IC50, CCN(CC)CCN(C)Cc1cccc(C(=O)Nc2ccc(Cl)cc2C(=O)N/N=C/c2ccc(F)cc2)c1 : 0.35

Memo: COc1cccc(/C=N/NC(=O)c2cc(Br)ccc2NC(=O)c2ccc(CN3CCN(CC(=O)N4CCOCC4)CC3)cc2)c1 , reported IC50: 29.4

IC50 measured on Cc1ccc(/C=N/NC(=O)c2ccccc2NC(=O)c2cccc(F)c2)cc1 = 8.42

So for COc1ccc(C(=O)Nc2ccc(C)cc2C(=O)N/N=C/c2ccc(C)cc2)cc1OC , the logged IC50 turned out to be 5.51

response.value for COc1ccc(C(=O)Nc2ccccc2C(=O)N/N=C/c2cccc(Cl)c2)cc1OC (field: IC50) = 3.23

Note to self: IC50 recorded for Cc1ccc(/C=N/NC(=O)c2ccccc2NC(=O)c2cccnc2)cc1 [Compound 164, hydrochloride] was 4.76

For record O=C(Nc1ccc(Br)cc1C(=O)N/N=C/c1ccc(Cl)c(C(F)(F)F)c1)c1ccc(CN2CCN(CC(=O)N3CCOCC3)CC2)cc1 the listed IC50 is 2.13

Briefly, IC50 measured for COc1ccc(/C=N/NC(=O)c2c(C)csc2NC(=O)c2cccc(CN3CCN(c4ncccn4)CC3)c2)cc1 : 3.88

Record summary for COc1ccc(C(=O)Nc2ccccc2C(=O)N/N=C/c2ccccc2C)cc1OC : reported IC50 = 7.15

For reference, reported IC50 for Cc1ccc(/C=N/NC(=O)c2c(NC(=O)c3cccc(CN(CC(C)O)CC(C)O)c3)sc3ccccc23)cc1 (stereo not shown) stands at 1.41

Item: COc1ccc(C(=O)Nc2ccc(Br)cc2C(=O)N/N=C/c2ccccc2F)cc1OC | IC50: 5.12

IC50 in this record for COc1ccc(C(=O)Nc2cc(Cl)ccc2C(=O)N/N=C/c2cccc(F)c2)cc1OC : 12.3

Please fill in: IC50 reported for O=C(Nc1ccc(Br)cc1C(=O)N/N=C/c1ccc(Cl)c(C(F)(F)F)c1)c1cccc(CSc2nc[nH]n2)c1 = 0.47

Documented IC50 of O=C(Nc1sc2ccccc2c1C(=O)N/N=C/c1cccc(F)c1)c1cccc(CN2CCC(CO)CC2)c1 : 4.7

Form field IC50, entry Cc1cccc(/C=N/NC(=O)c2cc(Cl)ccc2NC(=O)c2cccc(CN(CCO)CCO)c2)c1 : 2.18

The compound identified as O=C(Nc1ccccc1C(=O)N/N=C/c1cccnc1)c1ccc(F)cc1 registered its IC50 at 17.9

Summary for this compound, CC(O)CN(Cc1cccc(C(=O)Nc2sc3c(c2C(=O)N/N=C/c2ccc(Cl)c(C(F)(F)F)c2)CCC3)c1)CC(C)O (stereo not shown) : IC50 is 1.97

// sample COc1ccc(C(=O)Nc2ccccc2C(=O)N/N=C/c2ccc(O)cc2)cc1OC , its IC50 was 8.16

Note to self: IC50 recorded for COc1ccc(C(=O)Nc2ccccc2C(=O)N/N=C/c2cccc(C#N)c2)cc1OC was 4.26

Looking up COc1ccc(/C=N/NC(=O)c2cc(OCCCN3CCCCC3)ccc2NC(=O)c2cccc(CSCCO)c2)cc1 , I found its IC50 recorded as 52.2

Lab note: measured IC50 of Cc1ccc(/C=N/NC(=O)c2c(C)csc2NC(=O)c2cccc(CN(C)C)c2)cc1 was 6.93

Notebook: O=C(Nc1ccc(Br)cc1C(=O)N/N=C/c1ccc(F)cc1)c1ccc(CSCCCO)cc1 , IC50 read as 6.2

Reported IC50 of O=C(Nc1ccc(Br)cc1C(=O)N/N=C/c1ccc(F)cc1)c1ccccn1 : 0.64

Documented IC50 of CCN(CC)CCNCc1ccc(C(=O)Nc2ccc(Br)cc2C(=O)N/N=C/c2ccc(F)cc2)cc1 : 7.58

The compound listed as CCN(CC)CCN(C)Cc1cccc(C(=O)Nc2ccc(N3CCCN(C)CC3)cc2C(=O)N/N=C/c2ccc(Cl)c(C(F)(F)F)c2)c1 has a reported IC50 of 2.89

# IC50 of Cc1ccc(/C=N/NC(=O)c2ccccc2NC(=O)c2ccccn2)cc1C = 1.86

Notebook: CCN(CCO)Cc1cccc(C(=O)Nc2ccc(Cl)cc2C(=O)N/N=C/c2ccc(C)c(C)c2)c1 , IC50 read as 1.89
